system: PC-3; experiment: NCI tumour cell line growth inhibition, 48 h
Calls of active or inactive are those of the source. No stated cut-off is given here; in the data, active = GI50 up to about 1.1 µM and inactive = higher.
# Lookup of reported GI50 keyed by entry
assay endpoint: GI50

                                   compound  assay_endpoint             measured
0  O=C(O)c1ccc2nc(-c3ccccn3)c(-c3ccccn3)nc2c1            GI50  > 100 µM (inactive)
1  Cc1ccc(S(=O)(=O)OC2CC(C(C)(C)C)CCC2c2ccccc2)cc1 (stereo not given)            GI50     70 µM (inactive)
2  CC(C)(C)OC(=O)NCC(=O)NC1CC=CCC1NC(=O)CNC(=O)OC(C)(C)C (stereo not given)            GI50  > 100 µM (inactive)
3  COc1cc2c(cc1OC)C1C[C@]3(CCN1CC2)C(=O)N(c1ccccc1)C(=O)N3C(C)=O (stereo not given in full)            GI50  > 200 µM (inactive)
4            Cc1cn(CC2=NCCCN2)c(=O)[nH]c1=O            GI50  > 100 µM (inactive)
5  CC1(C)OC[C@@H]([C@@]2(COC(c3ccccc3)(c3ccccc3)c3ccccc3)CC=CC(=O)O2)O1            GI50   41.3 µM (inactive)
6  O=C1NNC(=O)c2ccccc2SSc2ccccc2C(=O)NNC(=O)c2ccccc2SSc2ccccc21            GI50   19.5 µM (inactive)
7  CCOC(=O)CSC1NC(C(=O)OC)CC1OC (stereo not given)            GI50  > 100 µM (inactive)
8        O=c1[nH]c2cc(F)c(F)cc2nc1Cc1ccccc1            GI50  > 100 µM (inactive)
9  CC1CCN(CC(=O)N2c3ccccc3Sc3cc4ccccc4cc32)CC1            GI50  > 100 µM (inactive)

src = ChEMBL document CHEMBL1201862
